Origin of measurements: patent US10766893B2

# pIC50 per entry for PDE1C (Homo sapiens (Human), UniProt Q14123)
Scale note: pIC50 = -log10(concentration in M).

INSERT INTO assay_data (compound, attribute_measured, measured_result) VALUES
  ('Cc1nn(C(C)C)c2c(NCc3cnn(C)c3)cc(-c3cccc4cn[nH]c34)nc12 [Example 39b]', 'pIC50', 6.52),
  ('CCOc1cnccc1-c1cc(NCc2ccccn2)c2c(n1)c(C)nn2C(C)C [Example 15b]', 'pIC50', 7.26);

Look up pIC50 with PDE1C (Homo sapiens (Human), UniProt Q14123) for this compound: CCOc1ncccc1-c1cc(NCc2cccn3ccnc23)c2c(n1)c(C)nn2C(C)C
Sequence (Q14123 whole entry): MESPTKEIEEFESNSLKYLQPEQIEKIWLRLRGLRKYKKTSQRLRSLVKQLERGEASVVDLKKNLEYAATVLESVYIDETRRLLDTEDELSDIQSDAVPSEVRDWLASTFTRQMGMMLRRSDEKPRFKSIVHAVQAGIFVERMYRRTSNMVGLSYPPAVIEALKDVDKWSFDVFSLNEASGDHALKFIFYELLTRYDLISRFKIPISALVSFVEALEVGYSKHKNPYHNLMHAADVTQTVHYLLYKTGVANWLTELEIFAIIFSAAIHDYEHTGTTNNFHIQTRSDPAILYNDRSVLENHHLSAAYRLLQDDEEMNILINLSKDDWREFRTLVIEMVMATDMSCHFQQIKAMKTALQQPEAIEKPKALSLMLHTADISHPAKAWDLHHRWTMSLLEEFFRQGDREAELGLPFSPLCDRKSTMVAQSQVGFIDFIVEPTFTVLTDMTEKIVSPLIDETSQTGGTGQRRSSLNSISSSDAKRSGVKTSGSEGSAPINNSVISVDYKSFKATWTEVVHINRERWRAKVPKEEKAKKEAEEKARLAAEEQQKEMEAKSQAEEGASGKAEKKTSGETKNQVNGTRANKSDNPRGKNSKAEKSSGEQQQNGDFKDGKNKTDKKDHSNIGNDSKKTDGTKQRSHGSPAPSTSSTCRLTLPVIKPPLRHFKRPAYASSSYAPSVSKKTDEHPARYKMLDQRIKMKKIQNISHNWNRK
7.66

Param readout = pIC50; param system = PDE1C (Homo sapiens (Human), UniProt Q14123); param query = CCOc1ncccc1-c1cc(NCc2cccc3nc(C)nn23)c2c(n1)c(C)nn2C(C)C ; response: value
7.46

Lab request: please report pIC50 under test system PDE1C (Homo sapiens (Human), UniProt Q14123) for CCCOc1cnccc1-c1cc(NCc2cnn(C)c2)c2c(n1)c(C)nn2C(C)C [Example 31b]
7.74
